Molecular target: T1, RBM5 RRM1-ZnF1 wt (human, UniProt P52756 94-210)
T1 sequence: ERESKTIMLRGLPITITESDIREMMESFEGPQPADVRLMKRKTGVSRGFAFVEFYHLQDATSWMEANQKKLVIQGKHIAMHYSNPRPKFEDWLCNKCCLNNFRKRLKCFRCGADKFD
Experiment: ITC; ITC: 20 mM MES pH 6.5, 100 mM NaCl, 2 mM BME, 25 C; NMR: 20 mM MES pH 6.5, 100 mM (single RRMs) or 400 mM (multidomain) NaCl, 1 mM DTT, 298 K
Settings: protein: recombinant
readout kind: Kd (µM)
// note: answer is a bare numeric in µM

Enquiry: // returns reported Kd for input UCUCUUCUC (ssRNA) [CU_9]
Return: 6
